Give measured Inhibition of complement mediated hemolysis (%) for each item. Keep answers brief.
system: complement mediated hemolysis; assay: Inhibition of complement mediated hemolysis (method of Baker et al.); type: cell-based; conditions: concentration 1 × 10^-6

Study these solved cases before continuing.
* C/C=C/C=C/C(=O)Oc1ccc2cc(C(=N)N)ccc2c1 [Compound No. 9, 6-amidino-2-naphthyl sorbate] | 37%
* N=C(N)c1ccc2cc(OC(=O)C3CC3)ccc2c1 | 18%
* N=C(N)c1ccc2cc(OC(=O)[C@H]3CC[C@H](CNC(=O)OCc4ccccc4)CC3)ccc2c1 | 25%
* CCCC(=O)Oc1ccc2cc(C(=N)N)ccc2c1 [Compound No. 2, 6-amidino-2-naphthyl n-butyrate] | 1%
* N=C(N)c1ccc2cc(OC(=O)CC3C=CCC3)ccc2c1 (stereo not drawn) | 10%

Moving on to the next compound.
Dear colleague, I am looking for the recorded Inhibition of complement mediated hemolysis (%) of the following compound: `N=C(N)c1ccc2cc(OC(=O)CCCCCNC(=O)OCc3ccccc3)ccc2c1`
0%

----------
tested on: complement mediated hemolysis; assay: Inhibition of complement mediated hemolysis (method of Baker et al.); format: cell-based; conditions: concentration 1 × 10^-6
Label t when Inhibition of complement mediated hemolysis (%) < 10%; otherwise f.

Answered cases to consult:
• CCCCCCCCCCCC(=O)Oc1ccc2cc(C(=N)N)ccc2c1 [Compound No. 6, 6-amidino-2-naphthyl laurate] = f
• CC(C)CC(=O)Oc1ccc2cc(C(=N)N)ccc2c1 [Compound No. 3, 6-amidino-2-naphthyl isovalerate] = t
• N=C(N)c1ccc2cc(OC(=O)C3CCCCC3)ccc2c1 [Compound No. 12] = f
• N=C(N)NCCCCCC(=O)Oc1ccc2cc(C(=N)N)ccc2c1 [Compound No. 18, 6-amidino-2-naphthyl ε-guanidinocaproate] = t
• N=C(N)c1ccc2cc(OC(=O)[C@H]3CC[C@H](CN)CC3)ccc2c1 [Compound No. 20] = f
• CC(=O)Oc1ccc2cc(C(=N)N)ccc2c1 [Compound No. 1, 6-amidino-2-naphthyl acetate] = t

Is it true that Inhibition of complement mediated hemolysis (%) reported for CCCCCC(=O)Oc1ccc2cc(C(=N)N)ccc2c1 [compound 4, 6-amidino-2-naphthyl caproate] is less than 10%?
t

----------
Biological target: Clr (Homo sapiens, UniProt P00736)
Sequence (P00736 464-705 limits assumed): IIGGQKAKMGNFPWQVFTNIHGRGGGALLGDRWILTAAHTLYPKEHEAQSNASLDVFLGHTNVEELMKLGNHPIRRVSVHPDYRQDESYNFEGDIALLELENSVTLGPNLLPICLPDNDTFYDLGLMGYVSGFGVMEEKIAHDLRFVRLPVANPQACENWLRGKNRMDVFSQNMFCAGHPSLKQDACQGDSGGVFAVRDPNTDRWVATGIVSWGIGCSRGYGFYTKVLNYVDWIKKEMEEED
Sequence (P00736 18-463 partner limits assumed): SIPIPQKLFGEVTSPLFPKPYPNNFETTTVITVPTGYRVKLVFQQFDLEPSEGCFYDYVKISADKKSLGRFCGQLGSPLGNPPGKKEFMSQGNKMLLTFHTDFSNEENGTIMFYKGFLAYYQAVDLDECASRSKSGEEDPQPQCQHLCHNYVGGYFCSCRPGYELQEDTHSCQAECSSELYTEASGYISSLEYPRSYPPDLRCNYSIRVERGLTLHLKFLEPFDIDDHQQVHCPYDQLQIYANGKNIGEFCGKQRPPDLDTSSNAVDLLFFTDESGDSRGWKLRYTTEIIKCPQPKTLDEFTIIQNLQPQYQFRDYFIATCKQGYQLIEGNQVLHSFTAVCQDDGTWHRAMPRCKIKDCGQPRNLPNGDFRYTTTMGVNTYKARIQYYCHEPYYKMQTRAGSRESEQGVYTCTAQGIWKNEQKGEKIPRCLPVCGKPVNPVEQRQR
Give measured IC50 for each item. Keep answers brief.
Give bare numbers, in µM.

* CCCC(=O)Oc1ccc2cc(C(=N)N)ccc2c1 [Compound No. 2, 6-amidino-2-naphthyl n-butyrate] | 9
* N=C(N)c1ccc2cc(OC(=O)C3CC3)ccc2c1 | 0.2

Moving on to the next compound.
Dear colleague, I am looking for the recorded IC50 of the following compound: `N=C(N)c1ccc2cc(OC(=O)[C@H]3CC[C@H](CNC(=O)OCc4ccccc4)CC3)ccc2c1`
0.4

----------
biological target: Clr (Homo sapiens, UniProt P00736)
pIC50: −log10 of the molar value.
Give 1 (yes) when the value for pIC50 is at least 5. Give 0 (no) when it is less.

Answered cases to consult:
* N=C(N)c1ccc2cc(OC(=O)[C@H]3CC[C@H](CN)CC3)ccc2c1 | 1 (yes)
* N=C(N)c1ccc2cc(OC(=O)CCCCCNC(=O)OCc3ccccc3)ccc2c1 | 1 (yes)
* N=C(N)NCCCCCC(=O)Oc1ccc2cc(C(=N)N)ccc2c1 [Compound No. 18, 6-amidino-2-naphthyl ε-guanidinocaproate] | 0 (no)
* N=C(N)c1ccc2cc(OC(=O)C3CCCCC3)ccc2c1 | 1 (yes)
* CC(C)CC(=O)Oc1ccc2cc(C(=N)N)ccc2c1 [Compound No. 3, 6-amidino-2-naphthyl isovalerate] | 1 (yes)

Consider the additional compound presented here.
Textbook exercise: given the entry CCCCCC(=O)Oc1ccc2cc(C(=N)N)ccc2c1 [compound 4, 6-amidino-2-naphthyl caproate] , state whether its pIC50 is greater than or equal to 5.
1 (yes)
